# System: Anti-Targets
# Assay notes: LYPLA1/LYPLA2 inhibition and anti-target count – cell lysate, competitive ABPP, HEK293T proteome, set 2, selectivity assay for LYPLA1 inhibitor project, late-stage follow-up (AID 652018)
# Condition info: competitive ABPP FP-PEG-Rh gel
Activity calls are given as the source filed them.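 The calls were made as follows: active = at least 50% inhibition of LYPLA1 or LYPLA2 at 300 nM, with no off-target enzyme hit at any dose; inactive = under 50% inhibition on both enzymes, or any off-target hit.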
Valid outcomes are listed here; reply with one: active, inactive

O=C(CN1CCN(C(=O)n2ncc(C(O)(c3ccccc3)c3ccccc3)n2)CC1)Nc1cc(C(F)(F)F)ccc1Cl	active
COc1ccc(N2CCN(C(=O)n3ncc(C(O)(c4ccccc4)c4ccccc4)n3)CC2)cc1	active

## Task Give the logged outcome of this assay for the following compound: `O=C(CN1CCN(C(=O)n2ncc(-c3ccc(OC(F)(F)F)cc3)n2)CC1)Nc1cc(C(F)(F)F)ccc1Cl`
## Result inactive

## Task Give the logged outcome of this assay for the following compound: `COc1ccc(N2CCN(C(=O)n3cc(-c4ccc(OC(F)(F)F)cc4)nn3)CC2)cc1`
## Result inactive

## Task Give the logged outcome of this assay for the following compound: `O=C(CN1CCN(C(=O)n2nc(Br)nc2Br)CC1)Nc1cc(C(F)(F)F)ccc1Cl`
## Result inactive

## Task Give the logged outcome of this assay for the following compound: `O=C(CN1CCN(C(=O)n2nc(Br)c(Br)n2)CC1)Nc1cc(C(F)(F)F)ccc1Cl`
## Result inactive

## Task Give the logged outcome of this assay for the following compound: `COc1ccc(N2CCN(C(=O)n3cncn3)CC2)cc1`
## Result inactive

## Task Give the logged outcome of this assay for the following compound: `O=C(CN1CCN(C(=O)n2cncn2)CC1)Nc1cc(C(F)(F)F)ccc1Cl`
## Result inactive

## Task Give the logged outcome of this assay for the following compound: `O=C(N1CCN(c2ccc(Br)cc2)CC1)n1ncc(C(O)(c2ccccc2)c2ccccc2)n1`
## Result inactive

## Task Give the logged outcome of this assay for the following compound: `COc1ccc(N2CCN(C(=O)n3ncc(-c4ccc(OC(F)(F)F)cc4)n3)CC2)cc1`
## Result inactive
